Property: hERG current change (%, negative = inhibition) at 10uM; scope: individual compounds
# target.under.test: human ether-à-go-go-related gene (hERG) potassium channel (human);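 further: peak tail current of the secondary pulse compared with the same well before compound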
# Sequence (Q12809 whole entry, looked up): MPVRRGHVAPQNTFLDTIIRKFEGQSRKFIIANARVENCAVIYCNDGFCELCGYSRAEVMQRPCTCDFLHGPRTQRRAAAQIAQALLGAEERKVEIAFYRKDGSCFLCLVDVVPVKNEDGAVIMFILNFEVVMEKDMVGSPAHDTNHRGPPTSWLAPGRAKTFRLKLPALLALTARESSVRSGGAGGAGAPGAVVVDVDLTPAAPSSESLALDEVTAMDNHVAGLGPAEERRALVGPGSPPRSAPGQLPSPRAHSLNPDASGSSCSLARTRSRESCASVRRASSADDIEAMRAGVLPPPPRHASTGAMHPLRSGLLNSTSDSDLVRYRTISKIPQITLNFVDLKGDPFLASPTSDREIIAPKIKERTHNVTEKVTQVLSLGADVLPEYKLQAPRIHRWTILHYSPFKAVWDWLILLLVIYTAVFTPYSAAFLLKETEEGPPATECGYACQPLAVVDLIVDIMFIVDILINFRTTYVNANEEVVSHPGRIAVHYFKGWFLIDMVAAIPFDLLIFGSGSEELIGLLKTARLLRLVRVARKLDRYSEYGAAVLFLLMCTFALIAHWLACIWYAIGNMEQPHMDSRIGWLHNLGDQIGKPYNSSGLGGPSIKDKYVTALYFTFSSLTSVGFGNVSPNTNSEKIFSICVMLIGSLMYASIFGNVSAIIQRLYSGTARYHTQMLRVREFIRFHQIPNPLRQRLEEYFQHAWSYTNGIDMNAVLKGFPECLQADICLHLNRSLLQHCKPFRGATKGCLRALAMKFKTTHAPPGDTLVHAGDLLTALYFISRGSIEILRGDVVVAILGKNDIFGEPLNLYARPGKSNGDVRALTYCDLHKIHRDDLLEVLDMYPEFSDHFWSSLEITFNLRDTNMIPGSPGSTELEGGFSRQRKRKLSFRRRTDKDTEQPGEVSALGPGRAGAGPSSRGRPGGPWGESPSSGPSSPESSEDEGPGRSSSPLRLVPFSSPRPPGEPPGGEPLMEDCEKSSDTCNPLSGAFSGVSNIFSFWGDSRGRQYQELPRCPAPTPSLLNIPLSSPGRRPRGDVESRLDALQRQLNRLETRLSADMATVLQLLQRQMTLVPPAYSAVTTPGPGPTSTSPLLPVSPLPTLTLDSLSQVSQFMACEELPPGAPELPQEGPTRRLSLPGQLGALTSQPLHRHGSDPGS
# method.description: primary screen, population patch clamp on CHO cells stably expressing hERG; higher = less effect of the substance
In all, about 310,000 compounds went through this assay and about 14,000 (4.5%) showed an effect of 50% or more. Effects have a minus sign here. This excerpt belongs to a sample that is enriched for strong results.
measured.property: hERG current change (%, negative = inhibition) at 10uM (%)

[
  {
    "compound": "CCN(CC)CCCOC(=O)C(OC)(c1ccccc1)c1ccccc1.Cl",
    "target.under.test": "human ether-à-go-go-related gene (hERG) potassium channel (human)",
    "output.unit": "%",
    "observed.value": -27.9
  },
  {
    "compound": "COc1ccccc1C(=O)NCCNc1nc2cc(C)cc(C)c2cc1C#N",
    "target.under.test": "human ether-à-go-go-related gene (hERG) potassium channel (human)",
    "output.unit": "%",
    "observed.value": 13.3
  },
  {
    "compound": "Cc1cc(Cl)ccc1C(=O)C1CCCN(C(=O)c2cnn(C(C)C)c2)C1 (stereo not shown)",
    "target.under.test": "human ether-à-go-go-related gene (hERG) potassium channel (human)",
    "output.unit": "%",
    "observed.value": -17.7
  },
  {
    "compound": "CCC1Oc2ccc(C)cc2N(CC(=O)N2CCN(c3ccc(F)cc3)CC2)C1=O (stereo not shown)",
    "target.under.test": "human ether-à-go-go-related gene (hERG) potassium channel (human)",
    "output.unit": "%",
    "observed.value": -54.1
  },
  {
    "compound": "O=C1N/C(=N\\N=C\\c2cccs2)SC1Cc1ccc(Cl)cc1 (stereo not shown)",
    "target.under.test": "human ether-à-go-go-related gene (hERG) potassium channel (human)",
    "output.unit": "%",
    "observed.value": -8.96
  },
  {
    "compound": "CCN(CC)C(=S)NC(=O)Cc1ccccc1",
    "target.under.test": "human ether-à-go-go-related gene (hERG) potassium channel (human)",
    "output.unit": "%",
    "observed.value": 16.1
  },
  {
    "compound": "CCC1Oc2ccc(C)cc2N(CC(=O)N2CCOCC2)C1=O (stereo not shown)",
    "target.under.test": "human ether-à-go-go-related gene (hERG) potassium channel (human)",
    "output.unit": "%",
    "observed.value": 4.58
  },
  {
    "compound": "Fc1ccc(-n2c(Cc3ccccc3)nnc2SCc2nc(-c3ccc(Cl)cc3)no2)cc1",
    "target.under.test": "human ether-à-go-go-related gene (hERG) potassium channel (human)",
    "output.unit": "%",
    "observed.value": -1.6
  },
  {
    "compound": "Cc1c(N2C(=O)/C(=C\\c3ccccc3O)SC2=S)c(=O)n(-c2ccccc2)n1C",
    "target.under.test": "human ether-à-go-go-related gene (hERG) potassium channel (human)",
    "output.unit": "%",
    "observed.value": 30.5
  },
  {
    "compound": "CC(=O)O.Cc1nc2nc(CSc3nnc(C)s3)cc(=O)n2[nH]1",
    "target.under.test": "human ether-à-go-go-related gene (hERG) potassium channel (human)",
    "output.unit": "%",
    "observed.value": 13.9
  }
]
